For each record, write down the corresponding % remaining at time point in minutes, 1440 min.
Assay Comment: Plasma stability assay, monkey plasma
Assay type: in vitro ADME, cynomolgus monkey
Measurement Conditions: 37° C., 2 μM, 1440 min (as headed)

Which % remaining at time point in minutes, 1440 min value belongs to CCCCCCCCCCCCCCCC(=O)OC1CCCn2c1nc(C)c(CCN1CCC(c3noc4cc(F)ccc34)CC1)c2=O (centres unmarked) [Paliperidone palmitate, reference compound] ?
92.5%

Which % remaining at time point in minutes, 1440 min value belongs to CCCCCCCCCCCC(=O)OCN1C(=O)CCc2ccc(OCCCCN3CCN(c4cccc(Cl)c4Cl)CC3)cc21 [Aripiprazole lauroxil, reference compound] ?
83.2%

Which % remaining at time point in minutes, 1440 min value belongs to `C=C1CC[C@@]2(O)C3Cc4ccc(OC(=O)OCCCCCCCCCCCC)c5c4[C@@]2(CCN3CC2CC2)[C@H]1O5` ?
70.1%

Which % remaining at time point in minutes, 1440 min value belongs to `C=C1CC[C@@]2(O)C3Cc4ccc(OC(=O)CCCCCCC/C=C/CCCCCCCC)c5c4[C@@]2(CCN3CC2CC2)[C@H]1O5` ?
76.5%

Which % remaining at time point in minutes, 1440 min value belongs to `C=C1CC[C@@]2(O)C3Cc4ccc(OCOC(=O)OCCCCCCCCCCCC)c5c4[C@@]2(CCN3CC2CC2)[C@H]1O5` ?
97.8%

* * *

Assay Comment: Liver S9 fraction stability, human
Type: in vitro ADME
Measurement Conditions: 1.0 mg/ml S9 protein, 2 μM, 37° C.
Readout Name: Liver S9 Fraction Stability % remaining at 60 minutes, Human (%)
Write the value in % as a bare number.

Which Liver S9 Fraction Stability % remaining at 60 minutes, Human value belongs to CCCCCCCCCCCCCCCC(=O)OC1CCCn2c1nc(C)c(CCN1CCC(c3noc4cc(F)ccc34)CC1)c2=O (centres unmarked) [Paliperidone palmitate, reference compound] ?
47.8

Which Liver S9 Fraction Stability % remaining at 60 minutes, Human value belongs to CCCCCCCCCCCC(=O)OCN1C(=O)CCc2ccc(OCCCCN3CCN(c4cccc(Cl)c4Cl)CC3)cc21 [Aripiprazole lauroxil, reference compound] ?
47.8

Which Liver S9 Fraction Stability % remaining at 60 minutes, Human value belongs to `C=C1CC[C@@]2(O)C3Cc4ccc(OCOC(=O)OCCCCCCCCCCCC)c5c4[C@@]2(CCN3CC2CC2)[C@H]1O5` ?
3.5

Which Liver S9 Fraction Stability % remaining at 60 minutes, Human value belongs to `C=C1CC[C@@]2(O)C3Cc4ccc(OC(=O)OCCCCCCCCCCCC)c5c4[C@@]2(CCN3CC2CC2)[C@H]1O5` ?
5.3

Which Liver S9 Fraction Stability % remaining at 60 minutes, Human value belongs to `C=C1CC[C@@]2(O)C3Cc4ccc(OC(=O)CCCCCCC/C=C/CCCCCCCC)c5c4[C@@]2(CCN3CC2CC2)[C@H]1O5` ?
59.8

* * *

Target: DOR (Homo sapiens, UniProt P41143)
Construct: expressed in transfected cells; membranes prepared from them
Sequence (P41143 whole entry): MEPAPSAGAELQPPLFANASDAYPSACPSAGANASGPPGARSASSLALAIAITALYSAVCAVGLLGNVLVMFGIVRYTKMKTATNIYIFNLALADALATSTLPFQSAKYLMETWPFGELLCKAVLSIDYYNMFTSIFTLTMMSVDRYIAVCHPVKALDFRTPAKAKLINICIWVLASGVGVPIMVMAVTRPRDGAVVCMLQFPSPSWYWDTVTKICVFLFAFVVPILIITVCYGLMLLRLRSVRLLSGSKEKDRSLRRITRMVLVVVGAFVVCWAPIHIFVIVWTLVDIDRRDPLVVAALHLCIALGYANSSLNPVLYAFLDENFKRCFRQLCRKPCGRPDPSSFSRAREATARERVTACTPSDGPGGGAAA
Assay Comment: Opioid receptor binding assay, DOR ([3H]-DADLE)
Measurement Conditions: DOR, MaxDose 10000 nM
Decide using %Inh@MaxDose: a value greater than or equal to 70% is Criterion met, a smaller one is Criterion not met.

Is reported %Inh@MaxDose greater than or equal to 70% here: `C=C1CC[C@@]2(O)C3Cc4ccc(OCOC(=O)CCCCCCCCCCC)c5c4[C@@]2(CCN3CC2CC2)[C@H]1O5`
Criterion met

Is reported %Inh@MaxDose greater than or equal to 70% here: `C=C1CC[C@@]2(O)C3Cc4ccc(OC(=O)OCCCCCCCCCCCCC)c5c4[C@@]2(CCN3CC2CC2)[C@H]1O5`
Criterion met

Is reported %Inh@MaxDose greater than or equal to 70% here: `CCCCCCCCOC(=O)Oc1ccc2c3c1O[C@H]1C(=O)CC[C@@]4(O)C(C2)N(CC2CC2)CC[C@]314`
Criterion met

Is reported %Inh@MaxDose greater than or equal to 70% here: `C=C1CC[C@@]2(O)C3Cc4ccc(OCOC(=O)CCCCCCCCCCCCCCC)c5c4[C@@]2(CCN3CC2CC2)[C@H]1O5`
Criterion met

Is reported %Inh@MaxDose greater than or equal to 70% here: `CCCCCCCCCCCOC(=O)OCOc1ccc2c3c1O[C@H]1C(=O)CC[C@@]4(O)C(C2)N(CC2CC2)CC[C@]314`
Criterion not met

Is reported %Inh@MaxDose greater than or equal to 70% here: `C=C1CC[C@@]2(O)C3Cc4ccc(OCOC(=O)OCCCCCCCCCCCCCC)c5c4[C@@]2(CCN3CC2CC2)[C@H]1O5`
Criterion not met

Is reported %Inh@MaxDose greater than or equal to 70% here: `C=C1CC[C@@]2(O)C3Cc4ccc(OCOC(=O)OCCCCCCCCCCCCCCCC)c5c4[C@@]2(CCN3CC2CC2)[C@H]1O5`
Criterion not met

Is reported %Inh@MaxDose greater than or equal to 70% here: `C=C1CC[C@@]2(O)C3Cc4ccc(OCOC(=O)OCCCCCCCCCCCC)c5c4[C@@]2(CCN3CC2CC2)[C@H]1O5`
Criterion not met
